- procedureText: In vivo PK of ortho phosphate bearing 3-AP prodrugs, single intravenous dose, beagle dog
- measurementParameters: prodrug in dog; single i.v. dose 7.2-8.5 mg/kg

molecule | Cl of prodrug (mL/min/kg)
NC(=S)N/N=C/c1ncccc1NC(=O)OCc1cc(Cl)cc(Cl)c1OP(=O)(O)O [3,5-Di-Cl-(12)] | 1.2
Cc1cccc(COC(=O)Nc2cccnc2/C=N/NC(N)=S)c1OP(=O)(O)O [3-CH3-(15)] | 0.11
NC(=S)N/N=C/c1ncccc1NC(=O)OCc1cc([N+](=O)[O-])ccc1OP(=O)(O)O [5-NO2-(8)] | 2.33
NC(=S)N/N=C/c1ncccc1NC(=O)OCc1cc(C(F)(F)F)ccc1OP(=O)(O)O [5-CF3-(11)] | 0.86

###

- procedureText: In vivo PK of ortho phosphate bearing 3-AP prodrugs, single intravenous dose, beagle dog
- measurementParameters: prodrug in dog serum; single i.v. dose 7.2-8.5 mg/kg
measurementLabel: AUC of prodrug

molecule | result
NC(=S)N/N=C/c1ncccc1NC(=O)OCc1ccccc1OP(=O)(O)O [Ortho- (3), reference compound] | 63309 µg·min/L
NC(=S)N/N=C/c1ncccc1NC(=O)OCc1cc(Cl)cc(Cl)c1OP(=O)(O)O | 6939 µg·min/L
NC(=S)N/N=C/c1ncccc1NC(=O)OCc1c(OP(=O)(O)O)ccc(Cl)c1Cl | 34211 µg·min/L

###

- procedureText: In vivo PK of ortho phosphate bearing 3-AP prodrugs, single intravenous dose, beagle dog
- measurementParameters: beagle, serum, iv; prodrug in dog; single i.v. dose 7.2-8.5 mg/kg; read-out: Vss of prodrug

compound | valueUnit | Vd
NC(=S)N/N=C/c1ncccc1NC(=O)OCc1ccccc1OP(=O)(O)O [Ortho- (3), reference compound] | L/kg | 0.14

###

- procedureText: In vivo PK of ortho phosphate bearing 3-AP prodrugs, single intravenous dose, beagle dog
- measurementParameters: 3-AP in dog serum after i.v. prodrug, equimolar doses (equivalent to 3 mg/kg of 3-AP)
- Method: The pharmacokinetics of 3-AP prodrugs were characterized following administration of a single intravenous dose of 7.2-8.5 mg/kg of 3-AP phosphate prodrugs (equivalent to 3 mg/kg of 3-AP) to a beagle dog. The animal was dosed once with each prodrug weekly. […] Concentrations of 3-AP (Triapine) and prodrug in serum were determined by HPLC and used to calculate various PK parameters. […] Mean serum drug concentration versus time data were analyzed by both compartmental and non-compartmental models. […]
Overview of reported Cmax of 3-AP across a group of compounds:

compound | valueUnit | Cmax of 3-AP
NC(=S)N/N=C/c1ncccc1NC(=O)OCc1c(OP(=O)(O)O)ccc(Cl)c1Cl [5,6-Di-Cl-(14)] | ng/mL | 3600
NC(=S)N/N=C/c1ncccc1NC(=O)OCc1cc(C(F)(F)F)ccc1OP(=O)(O)O [5-CF3-(11)] | ng/mL | 3000
Cc1cccc(COC(=O)Nc2cccnc2/C=N/NC(N)=S)c1OP(=O)(O)O [3-CH3-(15)] | ng/mL | 1500
NC(=S)N/N=C/c1ncccc1NC(=O)OCc1cc(Cl)c(Cl)cc1OP(=O)(O)O [4,5-Di-Cl-(13)] | ng/mL | 2700
NC(=S)N/N=C/c1ncccc1NC(=O)OCc1cc([N+](=O)[O-])ccc1OP(=O)(O)O [5-NO2-(8)] | ng/mL | 1900
NC(=S)N/N=C/c1ncccc1NC(=O)OCc1cc(Cl)cc(Cl)c1OP(=O)(O)O [3,5-Di-Cl-(12)] | ng/mL | 2100

###

- procedureText: In vivo PK of ortho phosphate bearing 3-AP prodrugs, single intravenous dose, beagle dog
- measurementParameters: 3-AP in dog after i.v. prodrug, equimolar doses
measurementLabel: V/F of 3-AP (L/kg)

moleculeSmiles | measurementLabel | valueUnit | readoutNumber
NC(=S)N/N=C/c1ncccc1NC(=O)OCc1c(OP(=O)(O)O)ccc(Cl)c1Cl | V/F of 3-AP | L/kg | 2.32
NC(=S)N/N=C/c1ncccc1NC(=O)OCc1cc(Cl)c(Cl)cc1OP(=O)(O)O | V/F of 3-AP | L/kg | 3.14
NC(=S)N/N=C/c1ncccc1NC(=O)OCc1cc(Cl)cc(Cl)c1OP(=O)(O)O | V/F of 3-AP | L/kg | 3.99
NC(=S)N/N=C/c1ncccc1NC(=O)OCc1cc(C(F)(F)F)ccc1OP(=O)(O)O | V/F of 3-AP | L/kg | 2.74
NC(=S)N/N=C/c1ncccc1NC(=O)OCc1cc([N+](=O)[O-])ccc1OP(=O)(O)O | V/F of 3-AP | L/kg | 4.27
Cc1cccc(COC(=O)Nc2cccnc2/C=N/NC(N)=S)c1OP(=O)(O)O | V/F of 3-AP | L/kg | 5.18

###

- procedureText: In vivo PK of ortho phosphate bearing 3-AP prodrugs, single intravenous dose, beagle dog
- measurementParameters: prodrug in dog serum; single i.v. dose 7.2-8.5 mg/kg
Overview of reported T1/2 of prodrug across a group of compounds:
measurementLabel: T1/2 of prodrug (min)

compound | measurementLabel | valueUnit | readoutNumber
NC(=S)N/N=C/c1ncccc1NC(=O)OCc1cc(Cl)cc(Cl)c1OP(=O)(O)O [3,5-Di-Cl-(12)] | T1/2 of prodrug | min | 34
Cc1cccc(COC(=O)Nc2cccnc2/C=N/NC(N)=S)c1OP(=O)(O)O [3-CH3-(15)] | T1/2 of prodrug | min | 318
NC(=S)N/N=C/c1ncccc1NC(=O)OCc1cc(C(F)(F)F)ccc1OP(=O)(O)O [5-CF3-(11)] | T1/2 of prodrug | min | 43
NC(=S)N/N=C/c1ncccc1NC(=O)OCc1cc([N+](=O)[O-])ccc1OP(=O)(O)O [5-NO2-(8)] | T1/2 of prodrug | min | 19

###

- procedureText: In vivo PK of ortho phosphate bearing 3-AP prodrugs, single intravenous dose, beagle dog
- measurementParameters: prodrug in dog serum; single i.v. dose 7.2-8.5 mg/kg (equivalent to 3 mg/kg of 3-AP)
Overview of reported Cmax of prodrug across a group of compounds:

compound | Cmax of prodrug
NC(=S)N/N=C/c1ncccc1NC(=O)OCc1cc(Cl)cc(Cl)c1OP(=O)(O)O [3,5-Di-Cl-(12)] | 140 µg/mL
Cc1cccc(COC(=O)Nc2cccnc2/C=N/NC(N)=S)c1OP(=O)(O)O [3-CH3-(15)] | 147 µg/mL
NC(=S)N/N=C/c1ncccc1NC(=O)OCc1cc(C(F)(F)F)ccc1OP(=O)(O)O [5-CF3-(11)] | 156 µg/mL
NC(=S)N/N=C/c1ncccc1NC(=O)OCc1cc([N+](=O)[O-])ccc1OP(=O)(O)O [5-NO2-(8)] | 126 µg/mL
NC(=S)N/N=C/c1ncccc1NC(=O)OCc1c(OP(=O)(O)O)ccc(Cl)c1Cl [5,6-Di-Cl-(14)] | 202 µg/mL
NC(=S)N/N=C/c1ncccc1NC(=O)OCc1cc(Cl)c(Cl)cc1OP(=O)(O)O [4,5-Di-Cl-(13)] | 220 µg/mL

###

- System: M109 murine lung carinoma
- procedureText: Activity in the M109 Lung Carcinoma Model
- Type: in vivo, Balb/c mice
- measurementParameters: 60QD mpk ip; day 3-7, 10-14, 17-21; CTX=Cytoxan

molecule | measuredTarget | Relative Activity
NC(=S)N/N=C/c1ncccc1NC(=O)OCc1cc(Cl)c(Cl)cc1OP(=O)(O)O [4,5-Di-Cl-(13)] | M109 murine lung carinoma | <CTX
NC(=S)N/N=C/c1ncccc1NC(=O)OCc1c(OP(=O)(O)O)ccc(Cl)c1Cl [5,6-Di-Cl-(14)] | M109 murine lung carinoma | <CTX
NC(=S)N/N=C/c1ncccc1NC(=O)OCc1cc([N+](=O)[O-])ccc1OP(=O)(O)O [5-NO2-(8)] | M109 murine lung carinoma | <<CTX
NC(=S)N/N=C/c1ncccc1NC(=O)OCc1cc(Cl)cc(Cl)c1OP(=O)(O)O [3,5-Di-Cl-(12)] | M109 murine lung carinoma | <CTX

###

- procedureText: In vivo PK of ortho phosphate bearing 3-AP prodrugs, single intravenous dose, beagle dog
- measurementParameters: 3-AP in dog serum after i.v. prodrug, equimolar doses

compound | valueUnit | AUC of 3-AP
NC(=S)N/N=C/c1ncccc1NC(=O)OCc1cc(Cl)c(Cl)cc1OP(=O)(O)O | µg·min/L | 392
NC(=S)N/N=C/c1ncccc1NC(=O)OCc1cc([N+](=O)[O-])ccc1OP(=O)(O)O | µg·min/L | 84
NC(=S)N/N=C/c1ncccc1NC(=O)OCc1cc(C(F)(F)F)ccc1OP(=O)(O)O | µg·min/L | 280
NC(=S)N/N=C/c1ncccc1NC(=O)OCc1cc(Cl)cc(Cl)c1OP(=O)(O)O | µg·min/L | 163
NC(=S)N/N=C/c1ncccc1NC(=O)OCc1ccccc1OP(=O)(O)O [Ortho- (3), reference compound] | µg·min/L | 698
Cc1cccc(COC(=O)Nc2cccnc2/C=N/NC(N)=S)c1OP(=O)(O)O | µg·min/L | 998
N/C(S)=N/N=C/c1ncccc1NC(=O)OCc1ccc(OP(=O)(O)O)cc1 [Para- (2), reference compound] | µg·min/L | 74.5
